# target.of.assay: Tyrosine-protein kinase JAK1 (Homo sapiens)
# Sequence (P23458 whole entry): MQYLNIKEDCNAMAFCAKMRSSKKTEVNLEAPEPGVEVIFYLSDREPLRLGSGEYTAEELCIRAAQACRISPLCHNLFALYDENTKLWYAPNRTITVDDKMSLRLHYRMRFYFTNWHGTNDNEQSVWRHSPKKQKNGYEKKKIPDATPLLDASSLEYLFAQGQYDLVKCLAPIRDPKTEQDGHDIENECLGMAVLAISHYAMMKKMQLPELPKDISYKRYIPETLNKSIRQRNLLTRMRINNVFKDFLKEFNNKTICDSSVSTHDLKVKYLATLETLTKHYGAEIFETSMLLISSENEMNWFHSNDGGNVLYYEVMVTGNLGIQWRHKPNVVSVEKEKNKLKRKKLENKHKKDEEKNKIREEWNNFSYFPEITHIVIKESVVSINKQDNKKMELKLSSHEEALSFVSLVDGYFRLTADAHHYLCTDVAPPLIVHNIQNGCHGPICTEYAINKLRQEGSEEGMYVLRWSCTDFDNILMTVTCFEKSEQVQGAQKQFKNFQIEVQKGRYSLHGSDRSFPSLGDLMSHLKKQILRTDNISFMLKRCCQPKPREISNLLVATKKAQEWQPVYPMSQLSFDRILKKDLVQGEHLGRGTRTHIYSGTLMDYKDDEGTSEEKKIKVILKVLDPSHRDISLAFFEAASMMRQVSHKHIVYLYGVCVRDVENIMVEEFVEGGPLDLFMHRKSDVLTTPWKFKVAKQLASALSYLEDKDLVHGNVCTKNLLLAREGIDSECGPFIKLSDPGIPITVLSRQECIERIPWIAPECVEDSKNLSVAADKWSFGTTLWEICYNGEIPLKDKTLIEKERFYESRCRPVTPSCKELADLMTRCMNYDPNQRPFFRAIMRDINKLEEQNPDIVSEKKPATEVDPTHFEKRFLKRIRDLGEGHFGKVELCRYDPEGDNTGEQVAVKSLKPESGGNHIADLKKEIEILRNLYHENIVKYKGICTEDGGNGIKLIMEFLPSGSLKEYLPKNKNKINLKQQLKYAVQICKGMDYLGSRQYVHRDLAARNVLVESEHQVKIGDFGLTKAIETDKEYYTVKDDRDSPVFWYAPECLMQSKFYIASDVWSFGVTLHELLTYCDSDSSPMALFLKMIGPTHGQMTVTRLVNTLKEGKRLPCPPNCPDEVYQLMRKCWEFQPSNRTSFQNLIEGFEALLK
measured.parameter: IC50 (nM)

C[C@@H]1NS(=O)(=O)c2ccc(Nc3nn([C@H]4COCC[C@@H]4C#N)cc3C(N)=O)cc21 = 16
COc1ccnc2c(F)cc(Nc3nn([C@H]4COCC[C@@H]4C#N)cc3C(N)=O)cc12 = 24

I: COc1cc(Nc2nn([C@H]3COCC[C@@H]3C#N)cc2C(N)=O)cc(F)n1
II: Cc1ncnc2ccc(Nc3nn([C@H]4COCC[C@@H]4C#N)cc3C(N)=O)cc12
III: N#Cc1ccc(Nc2nn([C@H]3COCC[C@@H]3C#N)cc2C(N)=O)cc1C1CC1
Query: Hey, quick one: sort these by IC50, low to high? Labels, requested order.
Reply: II, I, III
(II: 24 nM, I: 39 nM, III: 72 nM)

###

# measurement.description: Intrinsic clearance in dog hepatocytes after 120 mins by LC-MS/MS analysis
# Assay type: ADME, cell-based, Canis lupus familiaris, Hepatocyte
# test.context: read-out: CLH
measured.parameter: CLint scaled (mL/min/kg)

A: N#Cc1ccc(Nc2nn([C@H]3COCC[C@@H]3C#N)cc2C(N)=O)cc1
B: COc1cc(Nc2nn([C@H]3COCC[C@@H]3C#N)cc2C(N)=O)ccc1Cl
Query: Returns: the argument ( A or B ) having the larger CLint scaled. API: response body contains the label of the selected item.
Reply: B

###

// IC50 collected for Tyrosine-protein kinase JAK1 (Homo sapiens, UniProt P23458)
measured.parameter: IC50 (nM)

Completed entries (count: 7):
N#C[C@H]1CCOC[C@@H]1n1cc(C(N)=O)c(Nc2ccccc2)n1 = 0.4
N#C[C@H]1CCOC[C@@H]1n1cc(C(N)=O)c(Nc2ccc(OC(F)F)cc2)n1 = 0.1
COc1ccnc2c(F)cc(Nc3nn([C@H]4COCC[C@@H]4C#N)cc3C(N)=O)cc12 = 0.19
N#Cc1ccc(Nc2nn([C@H]3COCC[C@@H]3C#N)cc2C(N)=O)cc1Cl = 0.4
CN(C)[C@H]1CC[C@H](n2cc(C(N)=O)c(Nc3ccc(Cl)cc3)n2)[C@@H](C#N)C1 = 1.5
N#Cc1ccc(Nc2nn([C@H]3COCC[C@@H]3C#N)cc2C(N)=O)cc1 = 0.15
CN(C)c1cc(Nc2nn([C@H]3COCC[C@@H]3C#N)cc2C(N)=O)cc(F)n1 = 0.18

A: Cc1ncnc2ccc(Nc3nn([C@H]4COCC[C@@H]4C#N)cc3C(N)=O)cc12
B: Cn1cc(-c2ccc(Nc3nn([C@H]4COCC[C@@H]4C#N)cc3C(N)=O)cc2)cn1
Query: Kindly identify which of A and B has the larger recorded IC50 value. Write the label of whichever entry you select.
Reply: A

###

# target.of.assay: UniProtKB P23458
pIC50: −log10 of the molar value.
measured.parameter: pIC50

For orientation, consider the following solved cases.
C[C@@H]1NS(=O)(=O)c2ccc(Nc3nn([C@H]4COCC[C@@H]4C#N)cc3C(N)=O)cc21 = 10.40
N#C[C@H]1CCOC[C@@H]1n1cc(C(N)=O)c(Nc2cc(F)c3nccc(Cl)c3c2)n1 = 9.62

A: COc1cc(Nc2nn([C@H]3COCC[C@@H]3C#N)cc2C(N)=O)ccc1Cl
B: N#Cc1ccc(Nc2nn([C@H]3COCC[C@@H]3C#N)cc2C(N)=O)cc1C1CC1
Query: Given the listed records, identify the one among A and B with higher pIC50. Answer by quoting the chosen item's label.
Reply: A
(A: 10.00, B: 8.85)

P: N#C[C@H]1CCOC[C@@H]1n1cc(C(N)=O)c(Nc2ccc(-n3ccnn3)cc2)n1
Q: N#Cc1ccc(Nc2nn([C@H]3COCC[C@@H]3C#N)cc2C(N)=O)cc1C#N
Query: // which entry has the larger pIC50 value, P or Q ? The response must carry the label of the picked entry.
Reply: P

###

# target.of.assay: Non-receptor tyrosine-protein kinase TYK2 (Homo sapiens, UniProt P29597)
# Sequence (P29597 whole entry): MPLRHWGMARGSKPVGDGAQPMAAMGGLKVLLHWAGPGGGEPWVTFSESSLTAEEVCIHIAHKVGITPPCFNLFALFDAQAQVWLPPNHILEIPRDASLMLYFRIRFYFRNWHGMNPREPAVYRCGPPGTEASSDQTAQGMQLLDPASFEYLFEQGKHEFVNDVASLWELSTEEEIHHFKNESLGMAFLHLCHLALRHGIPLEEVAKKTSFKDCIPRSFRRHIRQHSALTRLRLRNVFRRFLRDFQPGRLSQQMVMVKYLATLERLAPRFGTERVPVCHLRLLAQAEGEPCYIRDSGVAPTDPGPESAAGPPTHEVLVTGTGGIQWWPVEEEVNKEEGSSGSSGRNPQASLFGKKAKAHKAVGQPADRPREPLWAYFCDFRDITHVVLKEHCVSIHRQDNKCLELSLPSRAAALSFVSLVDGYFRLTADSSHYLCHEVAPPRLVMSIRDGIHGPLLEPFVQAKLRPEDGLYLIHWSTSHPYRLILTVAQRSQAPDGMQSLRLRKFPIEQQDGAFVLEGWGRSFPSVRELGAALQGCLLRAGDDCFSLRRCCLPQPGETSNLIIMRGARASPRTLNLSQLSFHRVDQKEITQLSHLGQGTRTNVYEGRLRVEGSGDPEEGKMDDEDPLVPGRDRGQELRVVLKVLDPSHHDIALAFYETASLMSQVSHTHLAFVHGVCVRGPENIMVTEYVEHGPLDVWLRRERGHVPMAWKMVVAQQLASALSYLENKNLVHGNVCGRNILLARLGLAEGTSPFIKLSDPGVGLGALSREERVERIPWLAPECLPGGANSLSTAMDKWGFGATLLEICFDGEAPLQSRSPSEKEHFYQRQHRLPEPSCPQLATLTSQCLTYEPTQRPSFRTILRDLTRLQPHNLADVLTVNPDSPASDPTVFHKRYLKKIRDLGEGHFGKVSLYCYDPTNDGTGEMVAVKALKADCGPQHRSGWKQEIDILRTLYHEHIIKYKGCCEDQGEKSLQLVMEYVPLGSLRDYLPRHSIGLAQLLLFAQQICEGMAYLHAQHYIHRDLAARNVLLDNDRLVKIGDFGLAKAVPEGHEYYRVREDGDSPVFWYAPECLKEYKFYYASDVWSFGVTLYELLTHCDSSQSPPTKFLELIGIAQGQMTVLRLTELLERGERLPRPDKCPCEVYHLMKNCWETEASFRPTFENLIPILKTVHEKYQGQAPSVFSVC
measured.parameter: IC50 (nM)

Some solved entries appear below for comparison.
Cn1cc(-c2ccc(Nc3nn([C@H]4COCC[C@@H]4C#N)cc3C(N)=O)cc2)cn1 = 0.2
CN(C)c1cc(Nc2nn([C@H]3COCC[C@@H]3C#N)cc2C(N)=O)cc(F)n1 = 13
CN(C)[C@H]1CC[C@H](n2cc(C(N)=O)c(Nc3ccc(Cl)cc3)n2)[C@@H](C#N)C1 = 13
N#C[C@H]1CCOC[C@@H]1n1cc(C(N)=O)c(Nc2ccc(-n3ccnn3)cc2)n1 = 0.5

a: N#C[C@H]1CCOC[C@@H]1n1cc(C(N)=O)c(Nc2ccc(OC(F)F)cc2)n1
b: N#Cc1ccc(Nc2nn([C@H]3COCC[C@@H]3C#N)cc2C(N)=O)cc1
c: Cc1ncnc2ccc(Nc3nn([C@H]4COCC[C@@H]4C#N)cc3C(N)=O)cc12
Query: Arrange the 3 compounds from largest to smallest IC50. A ranking is expressed here by listing the labels in the requested order.
Reply: c, b, a
(c: 14 nM, b: 1.2 nM, a: 0.7 nM)

###

# measurement.description: Protein binding in dog plasma
# Assay type: ADME, cell-free, Canis lupus familiaris
# test.context: read-out: PPB (converted)
measured.parameter: fraction unbound
Answer using only a numeral; do not append any unit.

Query: // returns reported fraction unbound for input `N#Cc1ccc(Nc2nn([C@H]3COCC[C@@H]3C#N)cc2C(N)=O)cc1`
Reply: 0.18

###

# measurement.description: Oral bioavailability in rat at 1 mg/kg
# Format: ADME, organism-based
# test.context: in vivo
measured.parameter: bioavailability (%)

1: COc1cc(Nc2nn([C@H]3COCC[C@@H]3C#N)cc2C(N)=O)ccc1C#N
2: CN(C)c1cc(Nc2nn([C@H]3COCC[C@@H]3C#N)cc2C(N)=O)cc(F)n1
Query: Just curious, which one has the larger bioavailability reading, 1 or 2 ? Answer with the label corresponding to your selection.
Reply: 2
(2: 4%, 1: 2%)

a: N#C[C@H]1CCOC[C@@H]1n1cc(C(N)=O)c(Nc2ccc(F)cc2)n1
b: N#C[C@H]1CCOC[C@@H]1n1cc(C(N)=O)c(Nc2ccnc(F)c2)n1
Query: Lower value of bioavailability belongs to which: a or b ? Provide the label of your selected option as the answer.
Reply: b
(b: 19%, a: 40%)

###

# measurement.description: Plasma clearance in rat at 0.5 mg/kg, iv or 1 mg/kg, po
# Assay type: ADME, organism-based
measured.parameter: clearance (mL/min/kg)

Consider the reported clearance for these molecules:
N#C[C@H]1CCCC[C@@H]1n1cc(C(N)=O)c(Nc2ccccc2)n1 = 484
COc1cc(Nc2nn([C@H]3COCC[C@@H]3C#N)cc2C(N)=O)ccc1Cl = 21
N#C[C@H]1CCOC[C@@H]1n1cc(C(N)=O)c(Nc2ccccc2)n1 = 20

1: CN(C)[C@H]1CC[C@H](n2cc(C(N)=O)c(Nc3ccc(Cl)cc3)n2)[C@@H](C#N)C1
2: N#Cc1ccc(Nc2nn([C@H]3COCC[C@@H]3C#N)cc2C(N)=O)cc1
Query: Compare reported clearance values for 1 and 2 . Which is lower? Answer with the label corresponding to your selection.
Reply: 2
(2: 19 mL/min/kg, 1: 41 mL/min/kg)

###

# measurement.description: Intrinsic clearance in rat hepatocytes after 120 mins by LC-MS/MS analysis
# Assay type: ADME, cell-based, Hepatocyte
# test.context: read-out: CLH
measured.parameter: CLint scaled (mL/min/kg)

a: COc1ccnc2c(F)cc(Nc3nn([C@H]4COCC[C@@H]4C#N)cc3C(N)=O)cc12
b: N#C[C@H]1CCCC[C@@H]1n1cc(C(N)=O)c(Nc2ccccc2)n1
Query: In terms of reported CLint scaled, does a or b have the smaller number? // caller expects the label of the chosen entry
Reply: a

1: N#C[C@H]1CCOC[C@@H]1n1cc(C(N)=O)c(Nc2ccc(Cl)cc2)n1
2: CN(C)[C@H]1CC[C@H](n2cc(C(N)=O)c(Nc3ccc(Cl)cc3)n2)[C@@H](C#N)C1
Query: Between these two entries, 1 and 2 , state which has the higher CLint scaled. Field: selected label. Fill in the label of the entry you choose.
Reply: 2
(2: 109 mL/min/kg, 1: 9 mL/min/kg)

P: COc1cc(Nc2nn([C@H]3COCC[C@@H]3C#N)cc2C(N)=O)cc(F)n1
Q: C[C@@H]1NS(=O)(=O)c2ccc(Nc3nn([C@H]4COCC[C@@H]4C#N)cc3C(N)=O)cc21
Query: Recorded CLint scaled values differ for P and Q ; which one is higher? // respond with label for picked entry
Reply: Q

P: N#C[C@H]1CCOC[C@@H]1n1cc(C(N)=O)c(Nc2ccc(OC(F)F)cc2)n1
Q: N#C[C@H]1CCOC[C@@H]1n1cc(C(N)=O)c(Nc2ccc(-n3ccnn3)cc2)n1
Query: Just curious, which one has the larger CLint scaled reading, P or Q ? Which one? Tell me its label.
Reply: P
(P: 59 mL/min/kg, Q: 4.8 mL/min/kg)

I: N#Cc1ccc(Nc2nn([C@H]3COCC[C@@H]3C#N)cc2C(N)=O)cc1
II: Cn1cc(-c2ccc(Nc3nn([C@H]4COCC[C@@H]4C#N)cc3C(N)=O)cc2)cn1
III: COc1cc(Nc2nn([C@H]3COCC[C@@H]3C#N)cc2C(N)=O)ccc1Cl
Query: Arrange the 3 molecules from largest to smallest CLint scaled. I would appreciate it if you listed the labels in the requested order.
Reply: II, III, I

The measured values listed here are drawn from ChEMBL document CHEMBL4028908.
